- Target entity: T1, cjRecO (Campylobacter jejuni subsp. jejuni ATCC …, UniProt Q0PC17 1-204)
- T1 sequence: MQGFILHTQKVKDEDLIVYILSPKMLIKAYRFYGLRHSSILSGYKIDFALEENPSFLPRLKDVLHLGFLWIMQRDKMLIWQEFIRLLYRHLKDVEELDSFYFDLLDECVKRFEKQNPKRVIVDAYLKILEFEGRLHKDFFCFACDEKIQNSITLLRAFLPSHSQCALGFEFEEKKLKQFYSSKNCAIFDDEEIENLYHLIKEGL
- Method notes: fluorescence polarization; no saturation up to 100 uM; binding detectable from ~1 uM; Kd stated as at least 20 uM; FP: 20 mM Tris pH 8.0, 30 mM NaCl, 5 mM beta-mercaptoethanol, 0.8 nM fluorescein-ssDNA; temperature not stated; one-site model
- Assay conditions: protein: recombinant; tags: N-terminal His6 removed by thrombin (tag-free); single strand
pKd: −log10 of the molar value.
Metric: pKd

// pKd value for TTATAGGCATATAGGAGTAATTTTCTTGGGCTATGCAGTA (ssDNA) [40-mer ssDNA] : < 4.70

The measured values listed here are drawn from paper PMC9456098.
